Origin of values: ChEMBL document CHEMBL5131397

Assay: Half life in Cynomolgus monkey at 1 mg/kg, iv upto 48 hrs by LC/MS/MS analysis
Type: ADME, organism-based, Macaca fascicularis
Conditions: in vivo
PARAMETER_MEASURED: half-life (h)
Value expressed in h; do not type the unit.

*Q* Fill in the blank: the reported half-life of "O=C(Nc1ccn(-c2ccnc(F)c2)n1)C1(c2ccccc2F)CC1" is ____.
*A* 5.4

###

Form field: hepatocyte CLint (one value per entry).
Assay: Intrinsic clearance in human hepatocytes assessed per million cells
Format: ADME, cell-based, Hepatocyte
Details: read-out: CLH
Value expressed in µL/min/1e6 cells; do not type the unit.

C[C@H](C(=O)Nc1ccn(-c2ccccc2)n1)c1ccccc1 ... 37

*Q* Fill in the blank: the reported hepatocyte CLint of O=C(Nc1ccn(-c2ccccc2)n1)C1(c2ccccc2)CC1(F)F (stereo unspecified) is ____.
*A* 194

*Q* Fill in the blank: the reported hepatocyte CLint of "N#Cc1cccc(C2(C(=O)Nc3ccn(-c4cncc(F)c4)n3)CC2)c1" is ____.
*A* 4

*Q* Fill in the blank: the reported hepatocyte CLint of "O=C(Nc1ccn(-c2cncc(F)c2)n1)C1(c2ccccc2)CC1" is ____.
*A* 7

*Q* Fill in the blank: the reported hepatocyte CLint of "COc1cc(-n2ccc(NC(=O)C3(c4ccccc4F)CC3)n2)ccn1" is ____.
*A* 11

*Q* Fill in the blank: the reported hepatocyte CLint of "Nc1cc(-n2ccc(NC(=O)C3(c4ccccc4F)CC3)n2)ccn1" is ____.
*A* 9

*Q* Fill in the blank: the reported hepatocyte CLint of "Cc1cc(-n2ccc(NC(=O)C3(c4ccccc4F)CC3)n2)ccn1" is ____.
*A* 7

*Q* Fill in the blank: the reported hepatocyte CLint of "O=C(Nc1ccn(-c2ccnc(C(F)(F)F)c2)n1)C1(c2ccccc2F)CC1" is ____.
*A* 8

*Q* Fill in the blank: the reported hepatocyte CLint of "CC[C@@H](C(=O)Nc1ccn(-c2ccccc2)n1)c1ccccc1" is ____.
*A* 88

*Q* Fill in the blank: the reported hepatocyte CLint of "COc1cccc(C2(C(=O)Nc3ccn(-c4cncc(F)c4)n3)CC2)c1" is ____.
*A* 19

*Q* Fill in the blank: the reported hepatocyte CLint of "O=C(Nc1ccn(-c2cncc(F)c2)n1)C1(c2ccc(F)cc2)CC1" is ____.
*A* 4

###

Biological target: Very long chain fatty acid elongase 1 (Homo sapiens, UniProt Q9BW60)
Assay: Inhibition of ELOVL1 in Het […] 2 patient-derived human lymphocyte assessed as reduction of C26:0 VLCFA synthesis incubated for 48 hrs by cellular assay
Type: cell-based
PARAMETER_MEASURED: pIC50
pIC50 here is simply -log10 of the concentration when that concentration is written in mol/L.

*Q* Fill in the blank: the reported pIC50 of "O=C(Nc1ccn(-c2ccnc(F)c2)n1)C1(c2ccccc2F)CC1" is ____.
*A* 8.05

###

Target: UniProtKB Q9BW60
Experiment: Inhibition of ELOVL1 (unknown origin) using C22-acyl-CoA as substrate by radiometric enzyme assay
PARAMETER_MEASURED: IC50 (nM)
Value expressed in nM; do not type the unit.

Solved cases (3 shown):
O=C(Nc1ccn(-c2cncc(F)c2)n1)C1(c2ccc(F)cc2)CC1 ... 830
O=C(Nc1ccn(-c2cncc(F)c2)n1)C1(c2cccc(F)c2F)CC1 ... 1300
O=C(Cc1ccccc1)Nc1ccn(-c2ccccc2)n1 ... 2700

Please look at the following compound next.
*Q* Fill in the blank: the reported IC50 of "N#Cc1ccc(C2(C(=O)Nc3ccn(-c4cncc(F)c4)n3)CC2)cc1" is ____.
*A* 2200

###

Assay: Half life in Beagle dog at 0.5 mg/kg, iv upto 48 hrs by LC/MS/MS analysis
Type: ADME, organism-based, Canis lupus familiaris
Conditions: in vivo
PARAMETER_MEASURED: half-life (min)
Value expressed in min; do not type the unit.

*Q* Fill in the blank: the reported half-life of "O=C(Nc1ccn(-c2ccnc(F)c2)n1)C1(c2ccccc2F)CC1" is ____.
*A* 210

###

Assay: Volume of distribution at steady state in Beagle dog at 0.5 mg/kg, iv upto 48 hrs by LC/MS/MS analysis
Type: ADME, organism-based, Canis lupus familiaris
Settings: in vivo, read-out: Vdss
PARAMETER_MEASURED: Vd (L/kg)
Value expressed in L/kg; do not type the unit.

*Q* Fill in the blank: the reported Vd of "O=C(Nc1ccn(-c2ccnc(F)c2)n1)C1(c2ccccc2F)CC1" is ____.
*A* 7.5

###

Assay: Plasma protein binding in rat at 5 uM
Type: ADME, cell-free
Details: read-out: PPB (converted)
PARAMETER_MEASURED: fraction unbound at 5 µM
Give the figure by itself; no unit, no explanation.

*Q* Fill in the blank: the reported fraction unbound at 5 µM of "O=C(Nc1ccn(-c2ccnc(F)c2)n1)C1(c2ccccc2F)CC1" is ____.
*A* 0.071

###

Test: AUC (infinity) in Cynomolgus monkey at 3 mg/kg, po upto 24 hrs by LC/MS/MS analysis
Assay type: ADME, organism-based, Macaca fascicularis
Design: dose 3 mg/kg, time < 24 hrs, route po
Conditions: in vivo
PARAMETER_MEASURED: AUC(0-inf) (ng·h/mL)
Value expressed in ng·h/mL; do not type the unit.

*Q* Fill in the blank: the reported AUC(0-inf) of "O=C(Nc1ccn(-c2ccnc(F)c2)n1)C1(c2ccccc2F)CC1" is ____.
*A* 7700

###

Assay: Intrinsic clearance in rat hepatocytes assessed per million cells
Type: ADME, cell-based, Hepatocyte
Details: read-out: CLH
Form field: hepatocyte CLint (one value per entry).
Value expressed in µL/min/1e6 cells; do not type the unit.

Solved cases (2 shown):
CC1(C)CC1(C(=O)Nc1ccn(-c2ccccc2)n1)c1ccccc1 (stereo not drawn) ... 239
O=C(Nc1ccn(-c2cncc(F)c2)n1)C1(c2c(F)cccc2F)CC1 ... 13

Please look at the following compound next.
*Q* Fill in the blank: the reported hepatocyte CLint of "CC(C)(C(=O)Nc1ccn(-c2ccccc2)n1)c1ccccc1" is ____.
*A* 262

###

Form field: hepatocyte CLint (one value per entry).
Assay: Intrinsic clearance in rat hepatocytes assessed per million cells
Assay type: ADME, cell-based, Hepatocyte
Conditions: read-out: CLH
Value expressed in µL/min/1e6 cells; do not type the unit.

O=C(Nc1ccn(-c2cncc(F)c2)n1)C1(c2ccccc2F)CC1 ... 68
O=C(Nc1ccn(-c2cncc(F)c2)n1)C1(c2cccc(F)c2F)CC1 ... 54
O=C(Cc1ccccc1)Nc1ccn(-c2ccccc2)n1 ... 519
O=C(Nc1ccn(-c2ccc(F)nc2)n1)C1(c2ccccc2F)CC1 ... 23
O=C(Nc1ccn(-c2cncc(F)c2)n1)C1(c2ccc(F)cc2)CC1 ... 88
O=C(Nc1ccn(-c2ccccc2)n1)C1(c2ccccc2)CC1 ... 111
O=C(Nc1ccn(-c2ccnc(F)c2)n1)C1(c2ccccc2F)CC1 ... 14
COc1cccc(C2(C(=O)Nc3ccn(-c4cncc(F)c4)n3)CC2)c1 ... 355
O=C(Nc1ccn(-c2cncc(F)c2)n1)C1(c2ccccc2)CC1 ... 50
O=C(Cc1ccccc1)Nc1nc(-c2ccccc2)cs1 ... 398

*Q* Fill in the blank: the reported hepatocyte CLint of "C[C@@H](C(=O)Nc1ccn(-c2ccccc2)n1)c1ccccc1" is ____.
*A* 313

*Q* Fill in the blank: the reported hepatocyte CLint of "COc1ccc(C2(C(=O)Nc3ccn(-c4cncc(F)c4)n3)CC2)cc1" is ____.
*A* 103

*Q* Fill in the blank: the reported hepatocyte CLint of "O=C(Nc1ccn(-c2ccncn2)n1)C1(c2ccccc2F)CC1" is ____.
*A* 59

###

Form field: pIC50 (one value per entry).
Biological target: Very long chain fatty acid elongase 1 (Homo sapiens, UniProt Q9BW60)
Sequence (Q9BW60 whole entry): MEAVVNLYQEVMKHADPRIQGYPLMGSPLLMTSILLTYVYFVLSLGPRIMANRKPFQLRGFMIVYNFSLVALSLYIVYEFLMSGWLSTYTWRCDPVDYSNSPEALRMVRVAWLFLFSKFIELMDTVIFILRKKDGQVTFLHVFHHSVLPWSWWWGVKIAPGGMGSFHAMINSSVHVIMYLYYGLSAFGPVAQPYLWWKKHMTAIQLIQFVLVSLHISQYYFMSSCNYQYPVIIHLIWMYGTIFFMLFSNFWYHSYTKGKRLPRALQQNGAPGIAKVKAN
Test: Inhibition of ELOVL1 (unknown origin) using C22-acyl-CoA as substrate by radiometric enzyme assay
pIC50 here is simply -log10 of the concentration when that concentration is written in mol/L.

Solved cases (5 shown):
O=C(Nc1nc(-c2ccccc2)cs1)C1CCCO1 (configuration not stated) ... 4.52
CC[C@@H](C(=O)Nc1ccn(-c2ccccc2)n1)c1ccccc1 ... 5.02
O=C(Nc1ccn(-c2ccncc2)n1)C1(c2ccccc2F)CC1 ... 5.82
O=C(Nc1ccn(-c2cncc(F)c2)n1)C1(c2ccccc2)CC1 ... 6.25
Cc1ccccc1C1(C(=O)Nc2ccn(-c3cncc(F)c3)n2)CC1 ... 5.12

*Q* Fill in the blank: the reported pIC50 of "O=C(Cc1ccccc1F)Nc1nc(-c2ccccc2)cs1" is ____.
*A* 5.49

*Q* Fill in the blank: the reported pIC50 of "O=C(Nc1ccn(-c2cncc(F)c2)n1)C1(c2ccccc2F)CC1" is ____.
*A* 5.92

*Q* Fill in the blank: the reported pIC50 of "CC(C)(C(=O)Nc1ccn(-c2ccccc2)n1)c1ccccc1" is ____.
*A* 5.57

*Q* Fill in the blank: the reported pIC50 of "O=C(Nc1ccn(-c2ncns2)n1)C1(c2ccccc2F)CC1" is ____.
*A* 6.40

*Q* Fill in the blank: the reported pIC50 of "COc1cc(-n2ccc(NC(=O)C3(c4ccccc4F)CC3)n2)ccn1" is ____.
*A* 5.92

*Q* Fill in the blank: the reported pIC50 of "O=C(Nc1ccn(-c2cncc(F)c2)n1)C1(c2ccccc2Cl)CC1" is ____.
*A* 5.35
